# system-under-test: binding partner (antigen) of C5A (XPA23)
# test-summary: Biacore, K-off, fold vs original
Catalogue of fold difference in affinity vs original values
assay-endpoint: fold difference in affinity vs original

>  <binder>
C5A (XPA23) VH G56L (antibody, V domains shown) VH: EVQLLESGGGLVQPGGSLRLSCAASGFTFSKYFMFWVRQAPGKGLEWVSVISPSGLMTRYADSVKGRFTISRDNSKNTLYLQMNSLRAEDTAVYYCARVGYGGNSDYWGQGTLVTVSS VL: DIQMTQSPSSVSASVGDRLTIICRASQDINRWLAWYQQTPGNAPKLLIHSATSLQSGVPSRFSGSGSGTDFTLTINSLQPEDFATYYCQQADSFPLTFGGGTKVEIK

>  <val>
1.41 fold

$$$$
>  <binder>
C5A (XPA23) VH Y101A (antibody, V domains shown) VH: EVQLLESGGGLVQPGGSLRLSCAASGFTFSKYFMFWVRQAPGKGLEWVSVISPSGGMTRYADSVKGRFTISRDNSKNTLYLQMNSLRAEDTAVYYCARVGAGGNSDYWGQGTLVTVSS VL: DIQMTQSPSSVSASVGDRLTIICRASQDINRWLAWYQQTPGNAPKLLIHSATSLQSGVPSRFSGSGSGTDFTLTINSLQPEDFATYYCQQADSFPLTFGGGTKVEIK

>  <val>
0.04 fold

$$$$
>  <binder>
C5A (XPA23) VH R59F (antibody, V domains shown) VH: EVQLLESGGGLVQPGGSLRLSCAASGFTFSKYFMFWVRQAPGKGLEWVSVISPSGGMTFYADSVKGRFTISRDNSKNTLYLQMNSLRAEDTAVYYCARVGYGGNSDYWGQGTLVTVSS VL: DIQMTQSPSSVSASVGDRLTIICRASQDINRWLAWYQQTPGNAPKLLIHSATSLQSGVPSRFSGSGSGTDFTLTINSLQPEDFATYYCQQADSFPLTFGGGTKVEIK

>  <val>
0.92 fold

$$$$
